- Subject of test: SMYD3 (Homo sapiens (Human), UniProt Q9H7B4)
- Assay: SMYD3 biochemical assay (SPA, 3H-SAM methylation of MEKK2 protein substrate)
- Condition info: read-out: SMYD3 Biochem IC50 (μM)*
Please provide measured log10(IC50) for the entries that follow.
A value of 2 here means IC50 of 100 in µM, since values are log10.

Data request: What log10(IC50) appears in the records for this compound with SMYD3 (Homo sapiens (Human), UniProt Q9H7B4)? C[C@@H]1C[C@H](NC(=O)c2cc(C3CC3)on2)CCN1C(=O)CC(C)(C)CN [compound 312]
Data returned: -0.38

Data request: What log10(IC50) appears in the records for this compound with SMYD3 (Homo sapiens (Human), UniProt Q9H7B4)? C[C@H]1C[C@@H](NC(=O)c2cc(C3CC3)on2)CCN1S(=O)(=O)CCC(F)(F)F [compound 236]
Data returned: 0.02

Data request: What log10(IC50) appears in the records for this compound with SMYD3 (Homo sapiens (Human), UniProt Q9H7B4)? C[C@@H]1CC(NC(=O)c2cc(C3CC3)on2)CCN1C(=O)[C@@H]1CC[C@H](N)C1 (stereo partly shown) [compound 96]
Data returned: 0.28

Data request: What log10(IC50) appears in the records for this compound with SMYD3 (Homo sapiens (Human), UniProt Q9H7B4)? O=C(N[C@@H]1C[C@H]2CC[C@@H](C1)N2S(=O)(=O)c1ccc2[nH]c(=O)oc2c1)c1cc(C2CC2)on1 [compound 404]
Data returned: 0.15

Data request: What log10(IC50) appears in the records for this compound with SMYD3 (Homo sapiens (Human), UniProt Q9H7B4)? N[C@H]1CC[C@H](C(=O)N2CC[C@H](NC(=O)c3cc(C4CC4)on3)[C@@H](CO)C2)CC1 [compound 421]
Data returned: 0.40

Data request: What log10(IC50) appears in the records for this compound with SMYD3 (Homo sapiens (Human), UniProt Q9H7B4)? C[C@@H]1C[C@@H](NC(=O)c2cc(C3CC3)on2)CCN1C(=O)[C@H]1CC[C@H](N)CC1 [compound 58]
Data returned: 0.15

Data request: What log10(IC50) appears in the records for this compound with SMYD3 (Homo sapiens (Human), UniProt Q9H7B4)? CC1CN(C(=O)[C@H]2CC[C@H](N)CC2)CC(C)C1NC(=O)c1cc(C2CC2)on1 (stereo partly shown) [compound 303]
Data returned: 0.25

Data request: What log10(IC50) appears in the records for this compound with SMYD3 (Homo sapiens (Human), UniProt Q9H7B4)? C[C@H]1C[C@@H](NC(=O)c2cc(C3CC3)on2)CCN1S(=O)(=O)c1ccc(N(C)CCN2CCOCC2)nc1 [compound 414]
Data returned: -0.05

Data request: What log10(IC50) appears in the records for this compound with SMYD3 (Homo sapiens (Human), UniProt Q9H7B4)? CNS(=O)(=O)N1CC[C@H](NC(=O)c2cc(C3CC3)on2)C[C@@H]1C [compound 278]
Data returned: 0.46

Data request: What log10(IC50) appears in the records for this compound with SMYD3 (Homo sapiens (Human), UniProt Q9H7B4)? C[C@@H]1C[C@H](NC(=O)c2cc(C3CC3)on2)CCN1S(=O)(=O)CC1CCNCC1 (single isomer, unassigned) [Cpd. No. 418]
Data returned: -1.76

Data request: What log10(IC50) appears in the records for this compound with SMYD3 (Homo sapiens (Human), UniProt Q9H7B4)? C[C@@H]1C[C@H](NC(=O)c2cc(C3CC3)on2)CCN1C(=O)[C@H]1CC[C@H](N)CC1 [compound 57]
Data returned: -1.15

Data request: What log10(IC50) appears in the records for this compound with SMYD3 (Homo sapiens (Human), UniProt Q9H7B4)? C[C@@H]1C[C@H](NC(=O)c2cc(C3CC3)on2)CCN1C(=O)CC1CCNCC1 [compound 55]
Data returned: -0.17

Data request: What log10(IC50) appears in the records for this compound with SMYD3 (Homo sapiens (Human), UniProt Q9H7B4)? NCCCS(=O)(=O)N1CCC(NC(=O)c2cc(C3CC3)on2)CC1 [compound 210]
Data returned: -0.49

Data request: What log10(IC50) appears in the records for this compound with SMYD3 (Homo sapiens (Human), UniProt Q9H7B4)? CC[C@@H]1CN(C(=O)CCCN)CC[C@H]1NC(=O)c1cc(C2CC2)on1 [compound 298]
Data returned: 0.79

Data request: What log10(IC50) appears in the records for this compound with SMYD3 (Homo sapiens (Human), UniProt Q9H7B4)? C[C@@H]1C[C@H](NC(=O)c2cc(C3CC3)on2)CCN1S(=O)(=O)c1ccccn1 [compound 293]
Data returned: 0.68

Data request: What log10(IC50) appears in the records for this compound with SMYD3 (Homo sapiens (Human), UniProt Q9H7B4)? CC1CN(S(=O)(=O)CCCN)CCC1NC(=O)c1cc(C2CC2)on1 (stereo not shown) [compound 46]
Data returned: -0.92
